System: PI3K-δ specific basophil activation
Test: Anti-fCER1 BAT (delta), basophil activation in human whole blood
Type: cell-based
Conditions: Table 5
Readout label: EC50 (nM)
Numbers only, in nM.

Reported EC50, compound "C[C@H](Nc1ncnc2[nH]cnc12)c1cc2cccc(Cl)c2c(=O)n1-c1ccccc1" : ____ 78

====

Biological target: PI3K α (Homo sapiens)
Construct: purchased Upstate
Sequence (P42336 whole entry): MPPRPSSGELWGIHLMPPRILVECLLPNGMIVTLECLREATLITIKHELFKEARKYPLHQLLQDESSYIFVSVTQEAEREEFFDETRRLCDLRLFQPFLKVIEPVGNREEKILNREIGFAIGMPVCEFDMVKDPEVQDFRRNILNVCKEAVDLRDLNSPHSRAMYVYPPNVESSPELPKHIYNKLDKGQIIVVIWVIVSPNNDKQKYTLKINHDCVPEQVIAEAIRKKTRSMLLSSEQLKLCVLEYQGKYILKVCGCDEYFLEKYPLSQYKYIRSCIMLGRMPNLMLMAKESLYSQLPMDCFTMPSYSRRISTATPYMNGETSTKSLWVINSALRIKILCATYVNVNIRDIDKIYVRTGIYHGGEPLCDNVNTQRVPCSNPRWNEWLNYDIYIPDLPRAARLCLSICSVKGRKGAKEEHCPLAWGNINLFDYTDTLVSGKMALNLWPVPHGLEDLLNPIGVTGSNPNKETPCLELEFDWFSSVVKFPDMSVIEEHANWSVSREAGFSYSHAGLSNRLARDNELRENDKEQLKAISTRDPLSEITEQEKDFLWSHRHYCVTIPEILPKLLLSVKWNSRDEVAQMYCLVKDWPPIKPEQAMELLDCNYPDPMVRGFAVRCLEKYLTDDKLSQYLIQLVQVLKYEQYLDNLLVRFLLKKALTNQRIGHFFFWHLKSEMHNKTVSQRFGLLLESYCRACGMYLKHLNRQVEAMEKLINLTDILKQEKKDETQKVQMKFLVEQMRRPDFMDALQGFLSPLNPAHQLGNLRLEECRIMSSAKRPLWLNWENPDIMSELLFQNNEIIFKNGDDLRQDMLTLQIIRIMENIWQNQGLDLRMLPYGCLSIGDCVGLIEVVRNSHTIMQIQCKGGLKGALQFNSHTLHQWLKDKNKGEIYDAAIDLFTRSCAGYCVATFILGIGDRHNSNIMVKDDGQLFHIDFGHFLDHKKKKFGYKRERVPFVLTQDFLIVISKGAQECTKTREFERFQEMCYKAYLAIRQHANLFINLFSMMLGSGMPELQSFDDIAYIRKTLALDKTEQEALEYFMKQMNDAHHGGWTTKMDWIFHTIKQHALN
Sequence (P27986 whole entry partner): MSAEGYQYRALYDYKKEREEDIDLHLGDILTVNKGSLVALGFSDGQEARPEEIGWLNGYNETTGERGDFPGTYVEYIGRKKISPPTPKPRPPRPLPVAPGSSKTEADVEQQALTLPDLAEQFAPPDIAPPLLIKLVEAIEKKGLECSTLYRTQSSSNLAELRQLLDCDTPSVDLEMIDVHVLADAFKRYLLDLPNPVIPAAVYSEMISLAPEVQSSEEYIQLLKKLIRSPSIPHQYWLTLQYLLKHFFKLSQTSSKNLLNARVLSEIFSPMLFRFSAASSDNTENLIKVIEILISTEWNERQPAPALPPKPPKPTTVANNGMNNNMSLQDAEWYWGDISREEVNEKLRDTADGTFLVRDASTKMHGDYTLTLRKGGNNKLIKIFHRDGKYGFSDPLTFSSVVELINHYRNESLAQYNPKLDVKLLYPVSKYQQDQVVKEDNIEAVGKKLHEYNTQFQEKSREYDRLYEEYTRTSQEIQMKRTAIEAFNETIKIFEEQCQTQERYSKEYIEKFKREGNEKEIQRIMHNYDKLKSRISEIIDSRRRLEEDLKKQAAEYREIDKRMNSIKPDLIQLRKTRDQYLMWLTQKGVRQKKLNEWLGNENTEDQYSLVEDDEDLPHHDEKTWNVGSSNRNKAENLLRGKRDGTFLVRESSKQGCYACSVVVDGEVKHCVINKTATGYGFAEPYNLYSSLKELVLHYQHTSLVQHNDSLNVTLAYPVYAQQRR
Experiment: In vitro IC50, PI3K α (Table 3)
Format: biochemical
Readout label: IC50

Which IC50 is reported for this molecule? "Cc1cccc2cc(Cn3nc(C#CCO)c4c(N)ncnc43)n(-c3ccccc3F)c(=O)c12" < 10 µM

====

Assignment: determine reported pIC50 for the given compounds.
Target: PI3K β (Homo sapiens)
Sequence (P42338 whole entry): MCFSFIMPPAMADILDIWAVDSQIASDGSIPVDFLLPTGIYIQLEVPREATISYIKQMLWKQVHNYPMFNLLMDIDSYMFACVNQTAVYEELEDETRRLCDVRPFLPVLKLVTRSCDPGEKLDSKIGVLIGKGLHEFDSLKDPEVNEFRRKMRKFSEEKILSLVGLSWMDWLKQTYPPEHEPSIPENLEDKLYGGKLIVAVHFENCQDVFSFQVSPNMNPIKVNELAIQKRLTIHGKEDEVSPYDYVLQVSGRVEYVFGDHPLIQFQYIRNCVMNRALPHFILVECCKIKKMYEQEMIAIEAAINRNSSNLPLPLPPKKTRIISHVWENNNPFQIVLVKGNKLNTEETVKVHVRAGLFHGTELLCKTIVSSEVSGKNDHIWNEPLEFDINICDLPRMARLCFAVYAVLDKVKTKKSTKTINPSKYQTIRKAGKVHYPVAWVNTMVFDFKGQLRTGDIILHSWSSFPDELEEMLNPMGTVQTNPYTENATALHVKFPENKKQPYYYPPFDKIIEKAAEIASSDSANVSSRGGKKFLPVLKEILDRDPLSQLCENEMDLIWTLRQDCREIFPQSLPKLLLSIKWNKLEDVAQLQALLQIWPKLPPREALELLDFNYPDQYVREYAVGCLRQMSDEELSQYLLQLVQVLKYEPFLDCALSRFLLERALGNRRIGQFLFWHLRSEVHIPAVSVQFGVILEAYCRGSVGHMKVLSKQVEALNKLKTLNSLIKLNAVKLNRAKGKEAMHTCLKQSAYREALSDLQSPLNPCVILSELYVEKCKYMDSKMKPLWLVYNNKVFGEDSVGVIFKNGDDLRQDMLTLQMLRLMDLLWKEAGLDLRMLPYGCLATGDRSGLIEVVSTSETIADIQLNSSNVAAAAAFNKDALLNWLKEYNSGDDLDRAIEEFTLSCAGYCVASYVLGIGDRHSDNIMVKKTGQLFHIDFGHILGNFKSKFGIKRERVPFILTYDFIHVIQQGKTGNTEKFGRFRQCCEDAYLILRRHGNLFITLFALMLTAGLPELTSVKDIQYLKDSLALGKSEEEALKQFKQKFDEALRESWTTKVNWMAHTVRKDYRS
Sequence (P27986 whole entry partner): as the sequence (P27986 whole entry partner) above
pIC50: −log10 of the molar value.

Compound: Cc1ccccc1-n1c(Cn2nc(-c3cc(O)cc(F)c3)c3c(N)ncnc32)cc2cccc(C)c2c1=O [Compound 8]
Observed: < 5.00

Continue with the next compound.
I have this compound here, Cc1cccc2cc(Cn3nc(C#CCO)c4c(N)ncnc43)n(-c3ccccc3F)c(=O)c12 [Compound 7] , and I need its recorded pIC50. > 6.00
